Cited source: patent US8247211B2

- Tested on: Staphylococcus sp.
- Assay protocol: In vitro antibacterial evaluation: minimum inhibitory concentration (MIC), broth dilution method
- Assay type: cell-based
- Condition label: broth dilution, 18 hours at 35° C.
Reported MIC Coagulase Negative Staphylococcus (GC 4551) values for a set of molecules
State just the number; it will be interpreted in µg/mL.

Some molecules with recorded MIC Coagulase Negative Staphylococcus (GC 4551):
>>> endpoint_value("CC(c1ccccc1)C1NC(=O)CNC(=O)C(CO)NC(=O)C(C(O)C2CNC(=N)N2C2OC(CO)C(O)C(O)C2O)NC(=O)C(C(O)C2CNC(=N)N2)NC(=O)C(Cc2ccc3oc(SCc4ccc(-c5ccccc5)cc4)nc3c2)NC1=O (centres unmarked) [Example 47]")
8
>>> endpoint_value("CC(c1ccccc1)C1NC(=O)CNC(=O)C(CO)NC(=O)C(C(O)C2CN(Cc3ccc4ccccc4c3)C(=N)N2C2OC(CO)C(O)C(O)C2O)NC(=O)C(C(O)C2CNC(=N)N2)NC(=O)C(Cc2ccc(OC3OC(CO)C(OC4OC5COC6(OC5C(O)C4O)C4CC5CC(C4)CC6C5)C(O)C3O)cc2)NC1=O (centres unmarked) [Example 78]")
8
>>> endpoint_value("CC(c1ccccc1)C1NC(=O)CNC(=O)C(CO)NC(=O)C(C(O)C2CNC(=N)N2C2OC(CO)C(O)C(O)C2O)NC(=O)C(C(O)C2CNC(=N)N2)NC(=O)C(Cc2ccc3oc(SCc4ccccc4)nc3c2)NC1=O (centres unmarked) [Example 45]")
8

We next turn to a different molecule, shown below.
Field request: MIC Coagulase Negative Staphylococcus (GC 4551) | item: CC(c1ccccc1)C1NC(=O)CNC(=O)C(CO)NC(=O)C(C(O)C2CN(Cc3ccccc3)C(=NCc3ccccc3)N2C2OC(CO)C(O)C(O)C2O)NC(=O)C(C(O)C2CN(Cc3ccccc3)C(=NCc3ccccc3)N2Cc2ccccc2)NC(=O)C(Cc2ccc(OC3OC(CO)C(OC4OC5COC6(OC5C(O)C4O)C4CC5CC(C4)CC6C5)C(O)C3O)cc2)NC1=O (centres unmarked) [Example 79] 4
